Data origin, for the record: PubChem BioAssay (NCATS)

# key: entry, value: Potency
Test: Cell Proliferation Assay Versus the ED40515 IL2 Independent ATL cell lines (AID 1053194)
Conditions: ED40515 IL2-independent ATL cells
Activity calls are given as the source filed them. Calls follow the shape of the full dose curve.
PROPERTY_NAME: Potency

Cc1cc(SCc2sc(-c3ccc(C(F)(F)F)c(F)c3)nc2C)ccc1OCC(=O)O = 26.4 µM (active)
CNC(=O)N1N=C(c2ccc(N)cc2)c2cc3c(cc2CC1C)OCO3 (stereo not drawn) = 2.96 µM (active)
Cn1c(CCCC(=O)O)nc2cc(N(CCCl)CCCl)ccc21 = 18.7 µM (active)
O=C(O)C(=O)c1cn(Cc2ccccc2)c2ccc(-c3ccc(OC(F)(F)F)cc3)cc12 = 20.9 µM (active)
Cc1sc2c(c1C)C(c1ccc(Cl)cc1)=N[C@@H](CC(=O)OC(C)(C)C)c1nnc(C)n1-2 = 0.0833 µM (active)
CC(O)(CS(=O)(=O)c1ccc(F)cc1)C(=O)Nc1ccc(C#N)c(C(F)(F)F)c1 (stereo not drawn) = 18.7 µM (active)
CO[C@@H](C(=O)N1Cc2[nH]nc(NC(=O)c3ccc(N4CCN(C)CC4)cc3)c2C1)c1ccccc1 = 7.43 µM (active)
CS(=O)c1ccc(-c2nc(-c3ccc(F)cc3)c(-c3ccncc3)[nH]2)cc1 (stereo not drawn) = 29.6 µM (active)
